Value source: paper PMC4336329

Biological target: human ether-à-go-go-related gene (hERG) potassium channel (human);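 further: peak tail current of the secondary pulse compared with the same well before compound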
Assay: primary screen, population patch clamp on CHO cells stably expressing hERG; higher = less effect of the substance
The campaign covered roughly 310,000 compounds. About 14,000 (4.5%) showed an effect of 50% or more. The effect is printed as a negative number. Shown is part of a subset that was picked to be rich in strong results.
Reported hERG current change (%, negative = inhibition) at 10uM by item:
quantity-measured: hERG current change (%, negative = inhibition) at 10uM (%)

CCc1cc(C(=O)N2CCCC(CNC(=O)c3ccc(-c4ccccc4)cc3)C2)no1 (centres unmarked) :: -58.1
CCCN(Cc1cc2ccccc2[nH]c1=O)C(=O)c1cccc([N+](=O)[O-])c1 :: -16.8
Cc1cc(C)cc(NC(=O)CSc2nnc(-c3ccccc3C)o2)c1 :: 3.37
O=C(Nc1nccs1)C1CCCN(S(=O)(=O)c2cccc3cccnc23)C1 (centres unmarked) :: -3.72
COc1ccc(C2CC3(CC(C)(C)NC(=S)N3)Oc3cc(O)cc(C)c32)cc1 (centres unmarked) :: 14.6
O=C(NNC(=O)c1ccncc1)Nc1ccc([N+](=O)[O-])cc1 :: 11.2
Cn1c(N)c(C(=O)COC(=O)C2CCCC2)c(=O)n(C)c1=O :: -20.6
O=C(Cn1[nH]c(=O)c2ccccc2c1=O)OCC(=O)c1ccccc1Cl :: -0.463
COc1ccc(C2CC3(CC(C)(C)NC(SC)=N3)Oc3cc(O)cc(C)c32)cc1.I (centres unmarked) :: -74.3
Cn1c(N)c(C(=O)COC(=O)CC2CC3CCC2C3)c(=O)n(C)c1=O (centres unmarked) :: -64.4
O=C(NCC1CCCN(C(=O)c2cscn2)C1)c1ccc(-c2ccccc2)cc1 (centres unmarked) :: -15.1
COCCCNC(=S)N1CCN(C(c2ccccc2)c2ccccc2)CC1 :: 5.04
Cn1c(N)c(C(=O)COC(=O)C23CC4CC(CC(C4)C2)C3)c(=O)n(C)c1=O :: -22.6
Cc1cc(O)cc2c1C(c1ccc(F)cc1)CC1(CC(C)(C)NC(=S)N1)O2 (centres unmarked) :: 14.2
CCOn1c(=O)c(-c2ccccc2)[n+]([O-])c2ccccc21 :: 1.67
CC(C)CCn1c(Sc2nc3ccccc3o2)nc2c1c(=O)[nH]c(=O)n2C :: -20.8
CC(=O)CCC(=O)N1CCCC(CNC(=O)c2ccc(-c3ccccc3)cc2)C1 (centres unmarked) :: -13.8
Cc1cccc(C)c1NC(=O)CNC(=O)C(Cc1ccccc1)NC(=O)c1ccccc1 (centres unmarked) :: 13.5
Cn1c(N)c(C(=O)COC(=O)CCC2CCCCC2)c(=O)n(C)c1=O :: -73.6
CCCOC(=O)c1ccccc1C(=O)OCCC :: -3.24

---

Reported hERG current change (%, negative = inhibition) at 10uM by item:
Target: human ether-à-go-go-related gene (hERG) potassium channel (human);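 further: peak tail current of the secondary pulse compared with the same well before compound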
Assay: primary screen, population patch clamp on CHO cells stably expressing hERG; higher = less effect of the substance
The whole screen tested about 310,000 compounds, of which about 14,000 (4.5%) showed an effect of 50% or more. The effect is printed as a negative number. The sample holds strong results, similar compounds and a random draw of the others, so the mix is not that of the screen.
quantity-measured: hERG current change (%, negative = inhibition) at 10uM (%)

O=C(/C=C/c1ccccc1)N1CCC(N2CCC(C(=O)N3CCOCC3)CC2)CC1 :: -23.4
CCOC(=O)CSc1nc(C)cc(C)n1 :: 7.29
COCCN1CCC(CNCc2cn(-c3cc(C)ccc3C)nc2-c2ccccc2)C1 (stereo not shown) :: -18
CC(CN1CCN(Cc2ccccc2)CC1)c1ccccc1.O=C(O)C(=O)O (stereo not shown) :: -14
CCOC(=O)c1cc(-c2ccccc2)nn1Cc1cc(C)no1 :: -4.06
O=C(c1cnn2c(C(F)(F)F)cc(-c3cccs3)nc12)N1CCOCC1 :: -5.7
CCN(CC)CCOC(=O)C(Cc1cccc2ccccc12)CC1CCCO1.O=C(O)C(=O)O (stereo not shown) :: -53.8
COc1ccc(NC(=O)c2ccc(Cl)c(S(=O)(=O)N3CCc4ccccc4C3)c2)cn1 :: -46.8
Cc1ccc(-n2nnc3c(=O)n(CC(=O)N4CCOCC4)cnc32)cc1 :: -3.25
O=C(C1CCN(C2CCN(C/C=C/c3ccccc3)CC2)CC1)N1CCOCC1 :: -53.4
CCn1ccnc1CN(C)Cc1cn(-c2cccc(C)c2)nc1-c1cccc(F)c1 :: -18.3
C/C(=C\c1ccco1)CN1CCC(N2CCC(C(=O)N3CCOCC3)CC2)CC1 :: -78.9
O=C(C1CCN(C2CCN(Cc3cccc4c3OCO4)CC2)CC1)N1CCOCC1 :: -34.7
COc1ccc(N2CCN(C(C)C(=O)N(C)Cc3ccccc3)CC2)cc1 (stereo not shown) :: -17.3
NNc1nc2c(Cl)ccc(Cl)c2s1 :: 18.6
CCN(CC)CCOC(=O)C(Cc1ccco1)Cc1cccc2ccccc12.O=C(O)C(=O)O (stereo not shown) :: -76.8
CC(=O)c1ccc(S(=O)(=O)NCC(=O)N2CCN(C/C=C/c3ccccc3)CC2)cc1 :: -38.7
COc1cc(C)nc(N2CCCC(C(=O)NC3CCC(C)CC3)C2)n1 (stereo not shown) :: -0.336
CCN(CC)CCOC(=O)CCc1cccc2ccccc12.O=C(O)C(=O)O :: -42.6
CCn1cc(/C=C/C(=O)Nc2ccn(Cc3c(F)c(F)cc(F)c3F)n2)cn1 :: -14.9
CC(C(=O)N(C)Cc1ccccc1)N1CCN(C/C=C/c2ccccc2)CC1 (stereo not shown) :: -78.9
CCN(CC)CCn1c2c(c(SCC(=O)Nc3nc(C)cs3)nc1=O)CCC2 :: -48.7
CCN(CC)CCCn1c2c(c(SCC(=O)Nc3nc(C)cs3)nc1=O)CCC2 :: -42.6
CCOc1ccc(-n2ccc(=O)c(C(=O)Nc3ccc(S(=O)(=O)Nc4ncccn4)cc3)n2)cc1 :: 7.22
CCn1ccnc1CNCc1cn(-c2cc(C)ccc2C)nc1-c1ccccc1 :: -69.3
CCn1ccnc1CN(C)Cc1cn(-c2cc(C)ccc2C)nc1-c1ccccc1 :: -51.7
COc1ccccc1C1C(C#N)=C(N)Oc2cc(C)n(Cc3ccccn3)c(=O)c21 (stereo not shown) :: -2.81
CN1CCCN(C(=O)COc2ccc(F)cc2F)CC1 :: -3.55
CCN(CC)CCn1c2c(c(SCC(=O)Nc3nccs3)nc1=O)CCCC2 :: -59.5
CC(=O)Nc1ccc(S(=O)(=O)N[C@@H](C)C(=O)N2CCN(C/C=C/c3ccccc3)CC2)cc1 :: -31.8
O=C(C1CCN(C2CCN(Cc3ccsc3)CC2)CC1)N1CCOCC1 :: -3.8
Cc1ccc(OCC(=O)NCCO)c(Br)c1 :: 14.3
O=C(C1CCN(C2CCN(Cc3ccc4c(c3)CCO4)CC2)CC1)N1CCOCC1 :: -26.6
CCN(CC)CCOc1ccccc1OC.O=C(O)C(=O)O :: -11
Cc1cccc(CC(=O)N2CCC(N3CCC(C(=O)N4CCOCC4)CC3)CC2)c1 :: 0.701
CCN(CC)CCn1c2c(c(SCC(=O)Nc3nc(C)cs3)nc1=O)CCCC2 :: -70.1
Cc1cccc(N/N=C/c2ccc(C)s2)c1 :: 19.7
Cc1ccc(CCNC(=O)C2CC(c3ccccc3[N+](=O)[O-])=NO2)cc1 (stereo not shown) :: -20.7
Cc1ccc(C)c(-n2cc(CN3CCCN(C=O)CC3)c(-c3ccccc3)n2)c1 :: -31.9
O=C(Cc1ccc(F)cc1)N1CCC(N2CCC(C(=O)N3CCOCC3)CC2)CC1 :: 9.76

---

Target: human ether-à-go-go-related gene (hERG) potassium channel (human, UniProt Q12809);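 further: peak tail current of the secondary pulse compared with the same well before compound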
Sequence (Q12809 whole entry, looked up): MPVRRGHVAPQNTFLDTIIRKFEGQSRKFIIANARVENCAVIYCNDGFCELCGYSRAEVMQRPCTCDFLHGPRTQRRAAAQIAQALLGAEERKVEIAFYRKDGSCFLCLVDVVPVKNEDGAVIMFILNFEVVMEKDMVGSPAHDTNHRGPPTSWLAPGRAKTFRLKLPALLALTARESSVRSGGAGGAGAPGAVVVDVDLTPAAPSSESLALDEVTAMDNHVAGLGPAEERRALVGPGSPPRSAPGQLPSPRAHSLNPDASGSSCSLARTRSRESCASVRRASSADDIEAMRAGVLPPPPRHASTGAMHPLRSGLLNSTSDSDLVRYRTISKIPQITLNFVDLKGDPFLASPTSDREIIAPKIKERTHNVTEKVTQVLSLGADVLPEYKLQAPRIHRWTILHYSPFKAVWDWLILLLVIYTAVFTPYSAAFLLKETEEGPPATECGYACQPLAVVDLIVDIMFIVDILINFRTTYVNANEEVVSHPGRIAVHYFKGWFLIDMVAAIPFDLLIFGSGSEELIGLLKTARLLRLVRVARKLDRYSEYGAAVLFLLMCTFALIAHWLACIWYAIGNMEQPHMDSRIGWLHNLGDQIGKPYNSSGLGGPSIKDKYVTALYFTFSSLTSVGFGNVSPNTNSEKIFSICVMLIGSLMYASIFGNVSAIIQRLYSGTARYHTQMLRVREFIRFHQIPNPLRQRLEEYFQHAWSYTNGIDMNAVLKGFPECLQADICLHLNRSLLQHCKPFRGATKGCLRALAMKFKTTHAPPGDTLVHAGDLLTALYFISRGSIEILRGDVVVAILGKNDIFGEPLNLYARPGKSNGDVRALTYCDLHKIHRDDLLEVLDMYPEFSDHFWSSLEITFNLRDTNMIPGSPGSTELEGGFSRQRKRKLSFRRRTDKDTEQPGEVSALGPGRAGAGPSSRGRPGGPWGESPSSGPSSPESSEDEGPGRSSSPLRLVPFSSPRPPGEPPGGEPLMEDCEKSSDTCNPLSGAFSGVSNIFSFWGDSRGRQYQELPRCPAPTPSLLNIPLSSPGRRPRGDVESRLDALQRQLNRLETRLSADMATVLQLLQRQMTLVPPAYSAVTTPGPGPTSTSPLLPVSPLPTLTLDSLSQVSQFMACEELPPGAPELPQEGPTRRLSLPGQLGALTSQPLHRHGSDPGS
Test: primary screen, population patch clamp on CHO cells stably expressing hERG; higher = less effect of the substance
The whole screen tested about 310,000 compounds, of which about 14,000 (4.5%) showed an effect of 50% or more. Effects have a minus sign here. The entries come from a sample that favours strong results as a whole.
Reported hERG current change (%, negative = inhibition) at 10uM by item:
quantity-measured: hERG current change (%, negative = inhibition) at 10uM (%)

CC(=O)c1ccc(OCC(=O)N2CCN(S(=O)(=O)c3ccc(C)cc3C)CC2)cc1 :: -61.6
O=C(COc1ccccc1[N+](=O)[O-])N1CCC(Cc2ccccc2)CC1 :: -16.1
Cc1ccc(OCC(=O)N2CCC(Cc3ccccc3)CC2)c([N+](=O)[O-])n1 :: -67.7
COc1cccc(CN(CC(=O)NCC2CCCO2)C(=O)CNS(=O)(=O)c2ccccc2)c1 (stereo not drawn) :: 7.52
O=P(COCCO)(c1ccccc1)c1ccccc1 :: -4.96
C=C(C)CSc1nnc2n(C)c(=O)c3c4c(sc3n12)CCC4 :: -21.6
CC(=O)c1ccc(OCCCC(=O)N2CCN(S(=O)(=O)c3ccc(C)cc3C)CC2)cc1 :: -40.8
CC(=O)c1ccc(OCCCC(=O)N2CCN(S(=O)(=O)c3cc(C)ccc3C)CC2)cc1 :: -37.1
Cc1ccc(OCC(=O)N2CCC(C)CC2)c([N+](=O)[O-])n1 :: -7.74
